# credit: paper PMC11044139

tested on: Rhodotorula glutinis (DSM 10134); assay: Antimicrobial assay (MIC), R. glutinis; type: cell-based; settings: overnight incubation, n.i. = no inhibition up to 67 μg/mL
readout: MIC

Input: Please look up its MIC: CC(C)=CC[C@H]1C=C(CO)C=COC1=O
Output: n.i.

Input: Please look up its MIC: CC(C)(O)[C@H]1C[C@H](CC2=CC(=O)OC2)C(=O)O1
Output: n.i.

Input: Please look up its MIC: C[C@@H]1[C@H](O)[C@@H](C)/C=C/C=C/CC/C=C/C=C/C=C/C=C/C(O[C@H]2O[C@H](C)[C@@H](O)[C@H](N)[C@@H]2O)CC2O[C@](O)(CC(O)C(O)CCC(O)CC(O)CC(O)CC(=O)O[C@H]1C)CC(O)C2C(=O)O (stereo partly shown) [nystatin, reference compound]
Output: 4.20^N μg/mL

Input: Please look up its MIC: COc1ccc(C(=O)C(C)O)cc1 (stereo not shown) [Compound 12, 2-hydroxy-(4′-methoxy)-propiophenone]
Output: n.i.

====

tested on: Pseudomonas aeruginosa (PA14); assay: Antimicrobial assay (MIC), P. aeruginosa; format: cell-based; settings: overnight incubation, n.i. = no inhibition up to 67 μg/mL
readout: MIC

Input: Give the reported MIC for COc1ccc(C(=O)C(C)O)cc1 (stereo not shown) [Compound 12, 2-hydroxy-(4′-methoxy)-propiophenone] (system: Pseudomonas aeruginosa (PA14)).
Output: n.i.

Input: Give the reported MIC for CC(C)=CCC(CC1=CC(=O)OC1)C(=O)O (stereo not shown) (system: Pseudomonas aeruginosa (PA14)).
Output: n.i.

Input: Give the reported MIC for CC(C)(O)[C@H]1C[C@H](CC2=CC(=O)OC2)C(=O)O1 (system: Pseudomonas aeruginosa (PA14)).
Output: n.i.

Input: Give the reported MIC for CC(C)=CC[C@H]1C=C(CO)C=COC1=O (system: Pseudomonas aeruginosa (PA14)).
Output: n.i.

Input: Give the reported MIC for COc1ccc([C@H](O)[C@H](C)O)cc1 (system: Pseudomonas aeruginosa (PA14)).
Output: n.i.

Input: Give the reported MIC for CC1(C)CC2C=C(C=O)[C@]3(C=O)C[C@]3(C)C2C1 (single isomer, unassigned; (+)) [Compound 8, (+)-isovelleral] (system: Pseudomonas aeruginosa (PA14)).
Output: n.i.

Input: Give the reported MIC for CC(=O)O[C@@H]1CC2C3=C(C(C)C)CC[C@]3(C)CC[C@@]2(C)[C@@H](OC2OC[C@@H](O)[C@H](O)[C@H]2O)C=C1C=O (stereo partly shown) (system: Pseudomonas aeruginosa (PA14)).
Output: n.i.

Input: Give the reported MIC for CC(C)=CCc1cc(C=O)ccc1O (system: Pseudomonas aeruginosa (PA14)).
Output: n.i.

Input: Give the reported MIC for CC(C)(O)[C@H]1C[C@@H](CC2=CC(=O)OC2)C(=O)O1 (system: Pseudomonas aeruginosa (PA14)).
Output: n.i.

--- query ---
Input: Give the reported MIC for CC(C)=CCC(/C=C(\CO)CCO)C(=O)O (stereo not shown) [Compound 3, sterepinic acid A] (system: Pseudomonas aeruginosa (PA14)).
Output: n.i.

====

system: human breast adenocarcinoma (MCF-7); assay: Cytotoxicity (MTT) assay, MCF-7; assay type: cell-based; settings: MCF7, MCF-7, read-out: IC50
Kindly state IC50 for each of the entries shown.

Input: Please look up its IC50: CC1(C)CC2C=C(C=O)[C@]3(C=O)C[C@]3(C)C2C1 (single isomer, unassigned; (+)) [Compound 8, (+)-isovelleral]
Output: 2.8 µM

Input: Please look up its IC50: CC(=O)O[C@@H]1CC2C3=C(C(C)C)CC[C@]3(C)CC[C@@]2(C)[C@@H](OC2OC[C@@H](O)[C@H](O)[C@H]2O)C=C1C=O (some centres unmarked)
Output: 3.3 µM
